# Tested on: ATP;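 note: ATP exposure 15 min at 22 °C before imaging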
# testDetails: switch fluorescence ratio, 500 uM ATP over buffer (Cy3 cluster intensity, sum of 5 cycles each) (fold (ratio)); higher = stronger signal-on switching upon ATP binding; sequences stand for … in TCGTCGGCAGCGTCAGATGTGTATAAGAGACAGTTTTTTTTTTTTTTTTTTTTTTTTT…TC
# protocolConditions: aptamer strand: ATP DNA aptamer (quencher-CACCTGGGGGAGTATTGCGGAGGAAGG + anchor), 100 nM annealed; ATP concentration: 500 uM
Listing of recorded switch fluorescence ratio by entry.
Just the number, please, no unit attached.

1) TTGGTCAAGG = 0.995
2) TGGGTGTCGG = 1.04
3) ATCTGTCCAG = 1
4) TTGATGCGGT = 1.04
5) ATTAAACGGG = 0.997

Requested read-out: switch fluorescence ratio. Entry: TAGAGGAGGC 0.996

Requested read-out: switch fluorescence ratio. Entry: TGTAGTTTTT 0.961

Requested read-out: switch fluorescence ratio. Entry: GTTTATGCAT 1

Requested read-out: switch fluorescence ratio. Entry: AGGCCCACAT 1.01

Requested read-out: switch fluorescence ratio. Entry: TTGGGGTAAG 0.971

Requested read-out: switch fluorescence ratio. Entry: AGGGAGTTAT 1

Requested read-out: switch fluorescence ratio. Entry: CGAGTTCGTT 1

Requested read-out: switch fluorescence ratio. Entry: TTTGTCCCTT 1.01

Requested read-out: switch fluorescence ratio. Entry: AACTTGGTGG 0.944

Requested read-out: switch fluorescence ratio. Entry: CATTAGGTGT 1.16

Requested read-out: switch fluorescence ratio. Entry: GGTTTCTACA 1

Requested read-out: switch fluorescence ratio. Entry: GGGGTACGAT 1.02

Requested read-out: switch fluorescence ratio. Entry: TCAACCGTTT 1.02

Requested read-out: switch fluorescence ratio. Entry: AAGTCATTTT 1.03

Requested read-out: switch fluorescence ratio. Entry: GGGTAATGTA 1.02

----------
# Test system: ATP;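 note: ATP exposure 15 min at 22 °C before imaging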
# testDetails: switch fluorescence ratio, 500 uM ATP over buffer (Cy3 cluster intensity, sum of 5 cycles each) (fold (ratio)); higher = stronger signal-on switching upon ATP binding; sequences stand for … in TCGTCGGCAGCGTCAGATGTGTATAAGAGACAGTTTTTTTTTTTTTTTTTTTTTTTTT…TC
# protocolConditions: aptamer strand: ATP DNA aptamer (quencher-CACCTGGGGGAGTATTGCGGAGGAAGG + anchor), 100 nM annealed; ATP concentration: 500 uM
Listing of recorded switch fluorescence ratio by entry.
Just the number, please, no unit attached.

1. GCTAACCCTT = 1.06
2. TTGTCCTTTG = 0.993
3. GATACGAAGT = 0.981

Quick check: switch fluorescence ratio on ATP, item ATTTGAAGGT ? 1.01

Quick check: switch fluorescence ratio on ATP, item AATCGTATCC ? 1.01

Quick check: switch fluorescence ratio on ATP, item TGACGTACCC ? 1.7

Quick check: switch fluorescence ratio on ATP, item CTAGGAGCTT ? 1

Quick check: switch fluorescence ratio on ATP, item CACCGAGTTA ? 1.04

Quick check: switch fluorescence ratio on ATP, item GCTAGGAGTA ? 0.987

Quick check: switch fluorescence ratio on ATP, item TTTCAGGCTT ? 1.14

----------
# Test system: ATP;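 note: ATP exposure 15 min at 22 °C before imaging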
# testDetails: switch fluorescence ratio, 500 uM ATP over buffer (Cy3 cluster intensity, sum of 5 cycles each) (fold (ratio)); higher = stronger signal-on switching upon ATP binding; sequences stand for … in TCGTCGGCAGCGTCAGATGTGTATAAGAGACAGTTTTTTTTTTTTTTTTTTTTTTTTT…TC
# protocolConditions: aptamer strand: ATP DNA aptamer (quencher-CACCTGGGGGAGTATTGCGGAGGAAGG + anchor), 100 nM annealed; ATP concentration: 500 uM
valueKind: switch fluorescence ratio
Just the number, please, no unit attached.

Requested read-out: switch fluorescence ratio. Entry: GAGACGTTTG 1.02

Requested read-out: switch fluorescence ratio. Entry: ATGTTTTAGG 1.01

Requested read-out: switch fluorescence ratio. Entry: GTCATGAGCG 1

Requested read-out: switch fluorescence ratio. Entry: CAGCGGCTTT 0.977

Requested read-out: switch fluorescence ratio. Entry: TTTTCGAATT 0.991

Requested read-out: switch fluorescence ratio. Entry: CTTCAAAAGG 1.68

Requested read-out: switch fluorescence ratio. Entry: AATATTTAGT 1

Requested read-out: switch fluorescence ratio. Entry: AAAGGTGATA 1.03

Requested read-out: switch fluorescence ratio. Entry: TAAAAAGTAG 0.992

Source: the supplement of paper PMC10126150
